# Test system: Escherichia coli
# experimentalProtocol: Antibacterial activity against ESbetaL positive trimethoprim-sulfamethoxazole, cefepime, tazobactam-resistant Escherichia coli isolate by microdilution method
# Assay type: functional
Please go through the items and note down their MIC.
Answer format: numeric, µg/mL implied, no suffix.

Give me measured MIC, please, for this molecule: `O=c1cc(CCl)oc(CN2CCN(c3ccc(C(F)(F)F)cc3)CC2)c1O` 64

Consider the molecule `O=c1cc(CCl)oc(CN2CCN(c3ccc(F)cc3)CC2)c1O` and give its recorded MIC. 64

Give reported MIC value for `O=c1cc(CCl)oc(CN2CCN(c3ccccc3F)CC2)c1O` 64

Please give measured MIC of the following entry: `O=c1cc(CCl)oc(CN2CCN(c3ccc(Cl)c(Cl)c3)CC2)c1O` 64

# return recorded MIC for entry `COc1ccc(N2CCN(Cc3oc(CCl)cc(=O)c3O)CC2)cc1` 64

----------
# Tested on: Klebsiella pneumoniae
# experimentalProtocol: Antibacterial activity against Klebsiella pneumoniae RSKK 574 by microdilution method
# Type: functional
measureName: MIC

Give reported MIC value for `COc1ccc(N2CCN(Cc3oc(CCl)cc(=O)c3O)CC2)cc1` 16 µg/mL

Tell me its MIC given `COc1ccccc1N1CCN(Cc2oc(CCl)cc(=O)c2O)CC1` as the entry. 32 µg/mL

State, in one line, measured MIC of `O=c1cc(CCl)oc(CN2CCN(c3ccc(Cl)c(Cl)c3)CC2)c1O` 32 µg/mL

Please report MIC for the following molecule: `O=c1cc(CCl)oc(CN2CCN(c3ccccc3Cl)CC2)c1O` 64 µg/mL

Tell me measured MIC for `O=c1cc(CCl)oc(CN2CCN(c3cccc(Cl)c3)CC2)c1O` please. 32 µg/mL

Return MIC for the following molecule: `O=c1cc(CCl)oc(CN2CCN(c3ccccc3F)CC2)c1O` 16 µg/mL

----------
# System: Klebsiella pneumoniae
# experimentalProtocol: Antibacterial activity against Klebsiella pneumoniae RSKK 574 by microdilution method
# Format: functional
Please respond with reported MIC for every item in the list.
Use µg/mL as the unit, but write only the number.

Check the records and state MIC for `O=c1cc(CCl)oc(CN2CCN(c3ccc(F)cc3)CC2)c1O` 16

Answer with the recorded MIC of `CC1(C)S[C@@H]2[C@H](NC(=O)[C@H](N)c3ccccc3)C(=O)N2[C@H]1C(=O)O` only. 2

Answer with the recorded MIC for the compound listed here: `COc1cccc(N2CCN(Cc3oc(CCl)cc(=O)c3O)CC2)c1` 32

Write down MIC measured for item `O=c1cc(CCl)oc(CN2CCN(c3ccc(Cl)cc3)CC2)c1O` 64

Give MIC for the following compound: `O=c1cc(CCl)oc(CN2CCN(c3cccc(C(F)(F)F)c3)CC2)c1O` 16

Return value of MIC for input `O=c1cc(CCl)oc(CN2CCN(c3ccc(C(F)(F)F)cc3)CC2)c1O` , no commentary. 32

----------
# System: Human respirovirus 3
# experimentalProtocol: Antiviral activity against Human parainfluenza virus 3 infected African green monkey Vero cells assessed as concentration required to cause minimum inhibition of virus-induced cytopathic effect
# Format: functional
What Activity was measured for each of the following?
Lab book: enter the figure in µg/mL, no units written.

Please report the measured Activity for `COc1ccccc1N1CCN(Cc2oc(CCl)cc(=O)c2O)CC1` 0.05

Complete the entry with Activity for `O=c1cc(CCl)oc(CN2CCN(c3ccccc3F)CC2)c1O` 0.025

Name the recorded Activity of the compound listed here: `O=c1cc(CCl)oc(CN2CCN(c3cccc(Cl)c3)CC2)c1O` 0.025

Find the measured Activity of `COc1cccc(N2CCN(Cc3oc(CCl)cc(=O)c3O)CC2)c1` and report it. 0.1

Return Activity for the following compound: `O=c1cc(CCl)oc(CN2CCN(c3ccc(C(F)(F)F)cc3)CC2)c1O` 0.025

Supply Activity value. Item: `O=c1cc(CCl)oc(CN2CCN(c3ccc(Cl)cc3)CC2)c1O` 0.025

Determine from records and report Activity for `O=c1cc(CCl)oc(CN2CCN(c3ccc(F)cc3)CC2)c1O` 0.025

Provide only the value of recorded Activity for `COc1ccc(N2CCN(Cc3oc(CCl)cc(=O)c3O)CC2)cc1` 0.05

Hello, please tell me recorded Activity for this one: `O=c1cc(CCl)oc(CN2CCN(c3ccccc3Cl)CC2)c1O` 0.2

Determine from records and report Activity for `O=c1cc(CCl)oc(CN2CCN(c3ccc(Cl)c(Cl)c3)CC2)c1O` 0.05

Write down Activity measured for item `O=c1cc(CCl)oc(CN2CCN(c3cccc(C(F)(F)F)c3)CC2)c1O` 0.025

----------
# System: Candida albicans
# experimentalProtocol: Antifungal activity against Candida albicans ATCC 10231 by microdilution method
# Assay type: functional
The source made the active and inactive calls. No cut-off for these calls is given here.
measureName: MIC

# structureSmilesString, MIC
data = [
    ("CC1(C)S[C@@H]2[C@H](NC(=O)[C@H](N)c3ccccc3)C(=O)N2[C@H]1C(=O)O", "inactive"),
    ("CN[C@H](CC(C)C)C(=O)N[C@H]1C(=O)N[C@@H](CC(N)=O)C(=O)N[C@H]2C(=O)N[C@H]3C(=O)N[C@H](C(=O)N[C@H](C(=O)O)c4cc(O)cc(O)c4-c4cc3ccc4O)[C@H](O)c3ccc(c(Cl)c3)Oc3cc2cc(c3O[C@@H]2O[C@H](CO)[C@@H](O)[C@H](O)[C@H]2O[C@H]2C[C@](C)(N)[C@H](O)[C@H](C)O2)Oc2ccc(cc2Cl)[C@H]1O", "inactive"),
    ("O=c1cc(CCl)oc(CN2CCN(c3cccc(Cl)c3)CC2)c1O", "16 µg/mL"),
    ("COc1ccccc1N1CCN(Cc2oc(CCl)cc(=O)c2O)CC1", "8 µg/mL"),
    ("O=c1cc(CCl)oc(CN2CCN(c3ccc(C(F)(F)F)cc3)CC2)c1O", "8 µg/mL"),
    ("O=c1cc(CCl)oc(CN2CCN(c3ccc(Cl)c(Cl)c3)CC2)c1O", "16 µg/mL"),
]

Okay, next one:
Provide only the value of recorded MIC for `O=c1cc(CCl)oc(CN2CCN(c3cccc(C(F)(F)F)c3)CC2)c1O` 8 µg/mL

----------
# experimentalProtocol: Cytotoxicity against Chlorocebus aethiops (African green monkey) Vero cells assessed as maximum non-toxic concentration
# Type: cell-based
# conditionNotes: chlorocebus sabaeus, read-out: MNCC
Please go through the items and note down their MNTC.
Answer in µg/mL, number only, no unit symbol.

Entry `O=c1cc(CCl)oc(CN2CCN(c3ccc(C(F)(F)F)cc3)CC2)c1O` needs its MNTC filled in; supply it. 0.4

Tell me measured MNTC for `O=c1cc(CCl)oc(CN2CCN(c3ccccc3F)CC2)c1O` please. 0.8

Entry `O=c1cc(CCl)oc(CN2CCN(c3ccccc3Cl)CC2)c1O` needs its MNTC filled in; supply it. 0.4

Specify reported MNTC for the molecule shown: `O=c1cc(CCl)oc(CN2CCN(c3ccc(F)cc3)CC2)c1O` 1.6

Could you please provide reported MNTC for `COc1cccc(N2CCN(Cc3oc(CCl)cc(=O)c3O)CC2)c1` ? Thanks! 1.6

For `O=c1cc(CCl)oc(CN2CCN(c3ccc(Cl)cc3)CC2)c1O` , write its MNTC. 0.4

Answer with reported MNTC of `O=c1cc(CCl)oc(CN2CCN(c3ccc(Cl)c(Cl)c3)CC2)c1O` 0.4

Supply recorded MNTC for `O=c1cc(CCl)oc(CN2CCN(c3cccc(C(F)(F)F)c3)CC2)c1O` here. 0.8

Input `COc1ccccc1N1CCN(Cc2oc(CCl)cc(=O)c2O)CC1` , output reported MNTC. 1.6

Kindly indicate its recorded MNTC. Item: `COc1ccc(N2CCN(Cc3oc(CCl)cc(=O)c3O)CC2)cc1` 1.6

Supply MNTC value. Item: `O=c1cc(CCl)oc(CN2CCN(c3cccc(Cl)c3)CC2)c1O` 0.8

----------
# Tested on: Proteus mirabilis
# experimentalProtocol: Antibacterial activity against ESbetaL positive rimethoprim-sulfamethoxazole, cefepime, tazobactam-resistant Proteus mirabilis by microdilution method
# Type: functional
Exercise: state measured MIC for each of the compounds provided.

Please indicate MIC recorded for `O=c1cc(CCl)oc(CN2CCN(c3ccccc3Cl)CC2)c1O` > 128 µg/mL

Input `CC1(C)S[C@@H]2[C@H](NC(=O)[C@H](N)c3ccccc3)C(=O)N2[C@H]1C(=O)O` , output reported MIC. > 128 µg/mL

Provide only the value of recorded MIC for `COc1cccc(N2CCN(Cc3oc(CCl)cc(=O)c3O)CC2)c1` 64 µg/mL

----------
# System: Proteus mirabilis
# experimentalProtocol: Antibacterial activity against ESbetaL positive rimethoprim-sulfamethoxazole, cefepime, tazobactam-resistant Proteus mirabilis by microdilution method
# Type: functional
measureName: MIC

Supply reported MIC belonging to this compound: CC1COc2c(N3CCN(C)CC3)c(F)cc3c(=O)c(C(=O)O)cn1c23 (stereo unspecified) [OFLOXACIN] 1 µg/mL

Give recorded MIC. `O=c1cc(CCl)oc(CN2CCN(c3ccc(Cl)cc3)CC2)c1O` > 128 µg/mL

Please indicate MIC recorded for `O=c1cc(CCl)oc(CN2CCN(c3ccc(C(F)(F)F)cc3)CC2)c1O` 64 µg/mL

Return reported MIC. Input compound: `O=c1cc(CCl)oc(CN2CCN(c3ccc(Cl)c(Cl)c3)CC2)c1O` 64 µg/mL

Supply MIC value. Item: C[C@H]1COc2c(N3CCN(C)CC3)c(F)cc3c(=O)c(C(=O)O)cn1c23.C[C@H]1COc2c(N3CCN(C)CC3)c(F)cc3c(=O)c(C(=O)O)cn1c23.O [LEVOFLOXACIN] 1 µg/mL

Attribution: ChEMBL document CHEMBL3045118
